- EXPERIMENTAL TARGET: DOT1L (854-1095) (human) (UniProt Q8TEK3)
- METHOD: SPR; DOT1L construct immobilised on CM5 chip
pKd: −log10 of the molar value.
As shown below, each of these binders has a reported pKd value.

{"columns": ["BINDER", "pKd"],
 "data": [
  ["AF9 (497-568), recombinant C-terminal domain of human AF9 (protein) GECDKAYLDELVELHRRLMTLRERHILQQIVNLIEETGHFHITNTTFDFDLCSLDKTTVRKLQSYLETSGTS", 6.87],
  ["ENL (489-559), recombinant C-terminal domain of ENL (protein) GTYDKAYTDELVELHRRLMALRERNVLQQIVNLIEETGHFNVTNTTFDFDLFSLDETTVRKLQSCLEAVAT", 6.83]
]}

// data source = patent US20150368300A1
